Data provenance is BigSolDB 2.1.

- condition_summary: in acetone, 308.15 K
measured_metric: solubility (mole fraction)

structure_as_smiles: OC[C@H]1O[C@@H](Oc2c(O)cc(O)cc2/C=C/c2ccc(O)cc2)[C@H](O)[C@@H](O)[C@@H]1O
measured_number: 0.0365

====

- condition_summary: in DMF, 283.15 K

structure_as_smiles: OC[C@H]1O[C@@H](Oc2c(O)cc(O)cc2/C=C/c2ccc(O)cc2)[C@H](O)[C@@H](O)[C@@H]1O
solubility (mole fraction): 0.0175

====

- condition_summary: in n-propanol, 318.15 K

structure_as_smiles: OC[C@H]1O[C@@H](Oc2c(O)cc(O)cc2/C=C/c2ccc(O)cc2)[C@H](O)[C@@H](O)[C@@H]1O
solubility (mole fraction): 0.0269

====

- condition_summary: in DMF, 278.15 K

structure_as_smiles: OC[C@H]1O[C@@H](Oc2c(O)cc(O)cc2/C=C/c2ccc(O)cc2)[C@H](O)[C@@H](O)[C@@H]1O
solubility (mole fraction): 0.0145

====

- condition_summary: in acetonitrile, 278.15 K

structure_as_smiles: OC[C@H]1O[C@@H](Oc2c(O)cc(O)cc2/C=C/c2ccc(O)cc2)[C@H](O)[C@@H](O)[C@@H]1O
solubility (mole fraction): 0.00281

====

- condition_summary: in acetonitrile, 293.15 K

structure_as_smiles: OC[C@H]1O[C@@H](Oc2c(O)cc(O)cc2/C=C/c2ccc(O)cc2)[C@H](O)[C@@H](O)[C@@H]1O
solubility (mole fraction): 0.00526

====

- condition_summary: in acetone, 298.15 K

structure_as_smiles: OC[C@H]1O[C@@H](Oc2c(O)cc(O)cc2/C=C/c2ccc(O)cc2)[C@H](O)[C@@H](O)[C@@H]1O
solubility (mole fraction): 0.0264

====

- condition_summary: in methanol, 298.15 K
measured_metric: solubility (mole fraction)

structure_as_smiles: OC[C@H]1O[C@@H](Oc2c(O)cc(O)cc2/C=C/c2ccc(O)cc2)[C@H](O)[C@@H](O)[C@@H]1O
measured_number: 0.0181

====

- condition_summary: in isopropanol, 283.15 K

structure_as_smiles: OC[C@H]1O[C@@H](Oc2c(O)cc(O)cc2/C=C/c2ccc(O)cc2)[C@H](O)[C@@H](O)[C@@H]1O
solubility (mole fraction): 0.00652

====

- condition_summary: in n-propanol, 293.15 K
measured_metric: solubility (mole fraction)

structure_as_smiles: OC[C@H]1O[C@@H](Oc2c(O)cc(O)cc2/C=C/c2ccc(O)cc2)[C@H](O)[C@@H](O)[C@@H]1O
measured_metric: solubility (mole fraction)
result: 0.012

====

- condition_summary: in ethyl acetate, 288.15 K
measured_metric: solubility (mole fraction)

structure_as_smiles: OC[C@H]1O[C@@H](Oc2c(O)cc(O)cc2/C=C/c2ccc(O)cc2)[C@H](O)[C@@H](O)[C@@H]1O
measured_number: 0.00665

====

- condition_summary: in acetonitrile, 283.15 K

structure_as_smiles: OC[C@H]1O[C@@H](Oc2c(O)cc(O)cc2/C=C/c2ccc(O)cc2)[C@H](O)[C@@H](O)[C@@H]1O
solubility (mole fraction): 0.00349

====

- condition_summary: in methanol, 318.15 K

structure_as_smiles: OC[C@H]1O[C@@H](Oc2c(O)cc(O)cc2/C=C/c2ccc(O)cc2)[C@H](O)[C@@H](O)[C@@H]1O
solubility (mole fraction): 0.0377

====

- condition_summary: in DMF, 288.15 K
measured_metric: solubility (mole fraction)

structure_as_smiles: OC[C@H]1O[C@@H](Oc2c(O)cc(O)cc2/C=C/c2ccc(O)cc2)[C@H](O)[C@@H](O)[C@@H]1O
measured_metric: solubility (mole fraction)
result: 0.0214

====

- condition_summary: in THF, 298.15 K
measured_metric: solubility (mole fraction)

structure_as_smiles: OC[C@H]1O[C@@H](Oc2c(O)cc(O)cc2/C=C/c2ccc(O)cc2)[C@H](O)[C@@H](O)[C@@H]1O
measured_number: 0.0277

====

- condition_summary: in DMF, 293.15 K

structure_as_smiles: OC[C@H]1O[C@@H](Oc2c(O)cc(O)cc2/C=C/c2ccc(O)cc2)[C@H](O)[C@@H](O)[C@@H]1O
solubility (mole fraction): 0.0255

====

- condition_summary: in acetone, 283.15 K

structure_as_smiles: OC[C@H]1O[C@@H](Oc2c(O)cc(O)cc2/C=C/c2ccc(O)cc2)[C@H](O)[C@@H](O)[C@@H]1O
solubility (mole fraction): 0.0149

====

- condition_summary: in ethyl acetate, 278.15 K
measured_metric: solubility (mole fraction)

structure_as_smiles: OC[C@H]1O[C@@H](Oc2c(O)cc(O)cc2/C=C/c2ccc(O)cc2)[C@H](O)[C@@H](O)[C@@H]1O
measured_metric: solubility (mole fraction)
measured_number: 0.00441

====

- condition_summary: in isopropanol, 313.15 K

structure_as_smiles: OC[C@H]1O[C@@H](Oc2c(O)cc(O)cc2/C=C/c2ccc(O)cc2)[C@H](O)[C@@H](O)[C@@H]1O
solubility (mole fraction): 0.0205

====

- condition_summary: in methanol, 313.15 K

structure_as_smiles: OC[C@H]1O[C@@H](Oc2c(O)cc(O)cc2/C=C/c2ccc(O)cc2)[C@H](O)[C@@H](O)[C@@H]1O
solubility (mole fraction): 0.0316

====

- condition_summary: in isopropanol, 308.15 K
measured_metric: solubility (mole fraction)

structure_as_smiles: OC[C@H]1O[C@@H](Oc2c(O)cc(O)cc2/C=C/c2ccc(O)cc2)[C@H](O)[C@@H](O)[C@@H]1O
measured_metric: solubility (mole fraction)
measured_number: 0.0174

====

- condition_summary: in acetonitrile, 308.15 K

structure_as_smiles: OC[C@H]1O[C@@H](Oc2c(O)cc(O)cc2/C=C/c2ccc(O)cc2)[C@H](O)[C@@H](O)[C@@H]1O
solubility (mole fraction): 0.00927

====

- condition_summary: in acetone, 293.15 K

structure_as_smiles: OC[C@H]1O[C@@H](Oc2c(O)cc(O)cc2/C=C/c2ccc(O)cc2)[C@H](O)[C@@H](O)[C@@H]1O
solubility (mole fraction): 0.0219

====

- condition_summary: in isopropanol, 288.15 K

structure_as_smiles: OC[C@H]1O[C@@H](Oc2c(O)cc(O)cc2/C=C/c2ccc(O)cc2)[C@H](O)[C@@H](O)[C@@H]1O
solubility (mole fraction): 0.00838

====

- condition_summary: in ethanol, 293.15 K

structure_as_smiles: OC[C@H]1O[C@@H](Oc2c(O)cc(O)cc2/C=C/c2ccc(O)cc2)[C@H](O)[C@@H](O)[C@@H]1O
solubility (mole fraction): 0.0136

====

- condition_summary: in isopropanol, 298.15 K

structure_as_smiles: OC[C@H]1O[C@@H](Oc2c(O)cc(O)cc2/C=C/c2ccc(O)cc2)[C@H](O)[C@@H](O)[C@@H]1O
solubility (mole fraction): 0.0122

====

- condition_summary: in acetone, 278.15 K

structure_as_smiles: OC[C@H]1O[C@@H](Oc2c(O)cc(O)cc2/C=C/c2ccc(O)cc2)[C@H](O)[C@@H](O)[C@@H]1O
solubility (mole fraction): 0.0121

====

- condition_summary: in THF, 313.15 K

structure_as_smiles: OC[C@H]1O[C@@H](Oc2c(O)cc(O)cc2/C=C/c2ccc(O)cc2)[C@H](O)[C@@H](O)[C@@H]1O
solubility (mole fraction): 0.0464

====

- condition_summary: in isopropanol, 318.15 K

structure_as_smiles: OC[C@H]1O[C@@H](Oc2c(O)cc(O)cc2/C=C/c2ccc(O)cc2)[C@H](O)[C@@H](O)[C@@H]1O
solubility (mole fraction): 0.0238

====

- condition_summary: in ethyl acetate, 293.15 K
measured_metric: solubility (mole fraction)

structure_as_smiles: OC[C@H]1O[C@@H](Oc2c(O)cc(O)cc2/C=C/c2ccc(O)cc2)[C@H](O)[C@@H](O)[C@@H]1O
measured_metric: solubility (mole fraction)
measured_number: 0.00828

====

- condition_summary: in DMF, 318.15 K

structure_as_smiles: OC[C@H]1O[C@@H](Oc2c(O)cc(O)cc2/C=C/c2ccc(O)cc2)[C@H](O)[C@@H](O)[C@@H]1O
solubility (mole fraction): 0.0614

====

- condition_summary: in ethanol, 318.15 K
measured_metric: solubility (mole fraction)

structure_as_smiles: OC[C@H]1O[C@@H](Oc2c(O)cc(O)cc2/C=C/c2ccc(O)cc2)[C@H](O)[C@@H](O)[C@@H]1O
measured_number: 0.0326

====

- condition_summary: in n-propanol, 308.15 K

structure_as_smiles: OC[C@H]1O[C@@H](Oc2c(O)cc(O)cc2/C=C/c2ccc(O)cc2)[C@H](O)[C@@H](O)[C@@H]1O
solubility (mole fraction): 0.0196

====

- condition_summary: in ethanol, 308.15 K
measured_metric: solubility (mole fraction)

structure_as_smiles: OC[C@H]1O[C@@H](Oc2c(O)cc(O)cc2/C=C/c2ccc(O)cc2)[C@H](O)[C@@H](O)[C@@H]1O
measured_metric: solubility (mole fraction)
result: 0.0232
